Task for the reader: assign each of the following compounds its reported TGI.
# System: SF-268 CNS
# methodDescription: NCI tumour cell line growth inhibition, 48 h
Answers are plain numbers, in µM.

N#CC(C#N)=C/C=C(\Sc1ccc(F)cc1Cl)c1ccc(Cl)cc1 | 1.9
COc1cc2c(/C=C3/C(=O)N(C)c4ccc(O)cc43)c(Cl)[nH]c2cc1C | 25.3
O=C1CC/C(=C/COc2cc(=O)oc3ccccc23)O1 | 51.7

# map each compound to its TGI
1. CC12CCC(CC1)C(C)(C)O2
2. C#CC(O)/C=C/CCCCCCC#CC/C=C\CC#CCCCCCCCCC(O)C#C (stereo not given)

Result:
1: 119; 2: 25.8

====

Kindly state TGI for each of the entries shown.
# Test system: CAKI-1 renal
# methodDescription: NCI tumour cell line growth inhibition, 48 h
Answers are plain numbers, in µM.

Cc1[nH]c2cc(F)ccc2c1-c1nc2c3cccnc3c3ncccc3c2[nH]1 | 1.19
COc1cc2ccnc3c(=C(SC)SC)c(=O)c(c1OC)c23 | 23.4
O=C(Nc1ccc(S(=O)(=O)/N=c2\ncccn2C(=O)C(C(F)(F)F)C(F)(F)F)cc1)C(C(F)(F)F)C(F)(F)F | 0.242
CC1=C(C)CC2(C=C(C(C)(C)C)C(=O)C(C(C)(C)C)=C2)SC1 | 54.9
COc1cnc2c(c1)C(=O)c1c-2n(CCCN2CCC(O)CC2)c(=O)c2cc(Cl)ccc12 | 15.1
CC1(C)COC2=C(C1)C(=O)c1ccccc1C2=O | 3.9

Can you give me TGI for all of these, one by one?
1. CC1=CP(=O)(c2c(C(C)C)cc(C(C)C)cc2C(C)C)CCC1Cl (configuration not stated)
2. O=C(O)c1nc2ccc(C(F)(F)F)cc2nc1Nc1ccc(F)cc1
3. CC(=O)Nc1n[n+]([O-])c2cc(C)ccc2[n+]1[O-]

Result:
1. 39.4
2. 78
3. 12

====

# Tested on: SF-268 CNS
# methodDescription: NCI tumour cell line growth inhibition, 48 h
parameter: TGI

Solved entries:
O=C(NO)NCCCl | > 100 µM
O=C(SCc1cccc2ccccc12)c1ccc(Cl)cc1 | > 100 µM
CN(CCNC(=O)c1c[nH]c2c1Cc1ccccc1-2)CCNC(=O)c1c[nH]c2c1Cc1ccccc1-2 | > 100 µM
CC(C)=CC(=O)c1[nH]c2ccccc2c1CC(=O)NCCc1cncn1C | > 100 µM
C=C(C(=C)P(=S)(C(C)C)C(C)C)P(=S)(C(C)C)C(C)C | > 100 µM
Cc1nc2ccccc2nc1N=Nc1ccccc1 | > 100 µM
CCOC(=O)/C=C(\C(=O)OCC)n1cc(C)c(=O)n(Cc2cnnn2COCCOC(C)=O)c1=O | 38.5 µM
Cn1cc(S(=O)(=O)NC(=O)Nc2ccc(Cl)cc2)c(=O)c2ccc(F)cc21 | > 100 µM

For each of the compounds below, state TGI.
1. COC1(CC[C@@H](C)COC2OC(CO)C(O)C(O)C2O)O[C@H]2C[C@H]3[C@@H]4CC=C5C[C@@H](OC6OC(CO)C(O)C(OC7OC(CO)C(O)C(O)C7O)C6OC6OC(C)C(O)C(O)C6O)CC[C@]5(C)[C@H]4CC[C@]3(C)[C@H]2[C@@H]1C (stereo partly drawn)
2. O=C(O)[C@H](CCC[C@H]1C(=O)O[C@H](c2ccccc2)[C@H](c2ccccc2)N1C(=O)OCc1ccccc1)N[C@@H](c1ccccc1)[C@H](O)c1ccccc1

Result:
1. 26.4 µM
2. > 100 µM
